Hello, the source for this data is paper PMC8911640, in case you need it.

ASSAY_METHOD_TEXT: Metabolic (microsomal) stability (human)
Format: in vitro ADME
CONDITION_LABEL: microsomes
METRIC: CLint scaled (mL/min/kg)

>>> observed_result("O=C(CSc1cnn[nH]1)Nc1nccs1")
5.8
>>> observed_result("O=C(CSc1cnn[nH]1)Nc1ccccc1F")
7
>>> observed_result("O=C(CSc1cnn[nH]1)Nc1ccccn1")
7.7
>>> observed_result("O=C(CSc1cnn[nH]1)Nc1ccc(F)cc1")
4.4
>>> observed_result("N#Cc1ccccc1NC(=O)CSc1cnn[nH]1")
5.7

###

Tested on: E. coli K12
ASSAY_METHOD_TEXT: Whole cell accumulation in E. coli K12 (LC-MS/MS)
Set-up: dose or concentration left out as unconfirmed
CONDITION_LABEL: 10 min, 37 °C; average of three biological replicates
molecules and their reported Whole Cell Accumulation in E. coli
METRIC: Whole Cell Accumulation in E. coli (μM/10^10 CFU)

>>> observed_result("N[C@H]1CCN(c2ccc(NC(=O)CSc3cnn[nH]3)cc2)C1 [Compound 50]")
9.0
>>> observed_result("O=C(CSc1cnn[nH]1)Nc1ccc(N2C[C@@H]3NCCO[C@H]3C2)cc1 [Compound 53]")
19
>>> observed_result("O=C(NCCSc1cnn[nH]1)c1ccc(O)c(O)c1 [Compound 59]")
1.0
>>> observed_result("O=C(NCCSc1cnn[nH]1)c1ccccc1F [Compound 58]")
7.0
>>> observed_result("CN1CCN(c2ccc(NC(=O)CSc3cnn[nH]3)cc2)CC1 [Compound 56]")
4.7
